Target: RAMP1-CLR ECD (CGRP); purified MBP-RAMP1 ECD-(GS)5-CLR ECD-H6 fusion protein (Homo sapiens, UniProt O60894+Q16602)
Construct: MBP-hRAMP1.24-111-(Gly-Ser)5-hCLR.29-144-H6; made in house; host or cells: E. coli
Assay: Fluorescence polarization (FP) peptide binding competition assay, CGRP receptor ECD complex
Settings: CGRP vs AM1 receptor ECD complexes, FP assay
Where no end group is shown, it is not given here.
observable: Receptor Selectivity (in words)

Some substances with recorded Receptor Selectivity (in words):
FVPTDTGPWGF-NH2 [N31D/V32T/S34P/K35W/A36G]: CGRP
DKDNVAPRWKISPWGY-NH2 [S45W/Q50W]: Non-selective
DKDNVAPRSKISPWGY-NH2 [Peptide Q50W]: Non-selective
FVPTDVGPWAF-NH2 [N31D/S34P/K35W]: CGRP

Then there is this substance:
## Input Fill blank: measured Receptor Selectivity (in words) of the substance DKKNVAPRSKISPQGY-NH2 [Peptide D39K] is ____.
## Output AM1

###

Biological target: RAMP1-CLR ECD (CGRP); purified MBP-RAMP1 ECD-(GS)5-CLR ECD-H6 fusion protein (Homo sapiens, UniProt O60894+Q16602)
Construct: MBP-hRAMP1.24-111-(Gly-Ser)5-hCLR.29-144-H6; made in house; host or cells: E. coli
Assay: Fluorescence polarization (FP) peptide binding competition assay, CGRP receptor ECD complex
Settings: RAMP1-CLR ECD (CGRP) KI (nM), FP competition, FITC-AM W/W probe 7 nM, fusion protein 15 nM
Where no end group is shown, it is not given here.
observable: Ki (nM)

Below: 2 substances and their reported Ki.
DKDNVAPRTLISPWGY-NH2 [S45T/K46L/Q50W]: 65.6
DKDNVAPRWWISPWGF-NH2 [S45W/K46W/Q50W/Y52F]: 24

[P] DKFNVAPRSLISPWGF-NH2 [D39F/K46L/Q50W/Y52F]
[Q] DKDNVAPRSLISPWGY-NH2 [K46L/Q50W]
[R] FVPTDVGPWSY-NH2 [N31D/S34P/K35W/A36S/F37Y]
## Input Returns the items ordered by Ki, from maximum to minimum. Use the labels to give the requested order.
## Output Q, P, R

###

Target: RAMP1-CLR ECD (CGRP); purified MBP-RAMP1 ECD-(GS)5-CLR ECD-H6 fusion protein (Homo sapiens, UniProt O60894+Q16602)
Construct: MBP-hRAMP1.24-111-(Gly-Ser)5-hCLR.29-144-H6; made in house; host or cells: E. coli
Assay: Fluorescence polarization (FP) peptide binding competition assay, CGRP receptor ECD complex
Settings: RAMP1-CLR ECD (CGRP) KI (nM), FP competition, FITC-AM W/W probe 7 nM, fusion protein 15 nM
Where no end group is shown, it is not given here.
observable: Ki (nM)

[a] DKFNVAPRSLISPWGY-NH2 [D39F/K46L/Q50W]
[b] DKDNVAPRWKISPWGY-NH2 [S45W/Q50W]
[c] DKDNVAPRSKISPFGY-NH2 [Peptide Q50F]
## Input Arrange these substances by their Ki, starting with the largest number. Enter labels, ranked according to the request.
## Output c, a, b
